# STUDY TARGET: T1, monkey GPC3-His protein (monkey)
# T1 construct: Bought recombinant protein; also called monkey GPC3 protein
# ASSAY PROTOCOL: SPR, antibody captured on Protein A chip, monkey GPC3-His analyte;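 further: run at 25 °C with 240 s association and up to 600 s dissociation, double-referenced, kinetics fitted to a 1:1 Langmuir binding model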
PARAMETER: pKd
Field pKd (float): negative decimal logarithm of the concentration in molar.

F1.136.7 (antibody, human IgG1, kappa, V domains shown, Human-murine chimeric antibody) VH: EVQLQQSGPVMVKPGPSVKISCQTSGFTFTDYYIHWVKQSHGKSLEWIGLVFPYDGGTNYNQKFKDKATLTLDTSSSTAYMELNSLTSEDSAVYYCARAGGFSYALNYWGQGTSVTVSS VL: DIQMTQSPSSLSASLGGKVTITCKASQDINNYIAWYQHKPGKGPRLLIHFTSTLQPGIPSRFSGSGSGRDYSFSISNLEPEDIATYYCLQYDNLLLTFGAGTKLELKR ... 9.74

Next:
input: Can you look up the measured pKd of F1.120.16 (antibody, human IgG1, kappa, V domains shown, Human-murine chimeric antibody) VH: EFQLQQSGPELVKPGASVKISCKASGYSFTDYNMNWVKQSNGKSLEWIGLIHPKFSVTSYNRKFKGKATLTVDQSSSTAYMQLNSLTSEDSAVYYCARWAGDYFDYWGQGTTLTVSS VL: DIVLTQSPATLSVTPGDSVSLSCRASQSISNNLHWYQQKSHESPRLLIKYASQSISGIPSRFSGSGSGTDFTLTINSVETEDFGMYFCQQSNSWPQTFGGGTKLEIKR for me?
output: 8.35
